# Measurement Description: in vivo
# Stated Conditions: mouse, in vivo, iv
Measurement Label: LD50 (mg/kg)
Express it in mg/kg; write the number only.

**Query** Which LD50 is listed for C[N+](C)(C)CCCC(=O)[O-] [GBB, γ-butyrobetaine] ?
**Result** 1860

* * *

# Test system: CaCl2-induced lethal arrhythmias in mice
# Measurement Description: CaCl2-induced lethal arrhythmias in mice (Table 4)
# Assay type: in vivo, albino mice
# Stated Conditions: 30 mg/kg p.o.
Let's look at some compounds and their measured Protection against the control.
Provide the reading as a plain figure in %.

The examples below pair each entry with its known result.
C=C[C@H]1C[N@@]2CC[C@H]1C[C@@H]2[C@@H](O)c1ccnc2ccc(OC)cc12 | 30
C[N+](C)(C)NCCC(=O)[O-] [M, 3-(2,2,2-Trimethylhydrazinium)propionate] | 30
C[N+](C)(C)CCCC(=O)[O-] | 20

// switching to the query compound
**Query** API: value(readout=Protection against the control, system=CaCl2-induced lethal arrhythmias in mice) for record CCOC(=O)Nc1ccc2c(c1)N(C(=O)CCN1CCOCC1)c1ccccc1S2
**Result** 40

* * *

# Tested on: CaCl2-induced lethal arrhythmias in rats
# Measurement Description: CaCl2-induced lethal arrhythmias in rats (Table 5)
# Type: in vivo, albino rats
# Stated Conditions: 10 mg/kg p.o.; 5 observations
Measurement Label: Survive (percent) (%)
A number alone suffices; assume %.

CCOC(=O)Nc1ccc2c(c1)N(C(=O)CCN1CCOCC1)c1ccccc1S2 | 40
C=C[C@H]1C[N@@]2CC[C@H]1C[C@@H]2[C@@H](O)c1ccnc2ccc(OC)cc12 | 40
C[N+](C)(C)CCCC(=O)[O-] | 20

**Query** Quick check: Survive (percent) of C[N+](C)(C)NCCC(=O)[O-] [M, 3-(2,2,2-Trimethylhydrazinium)propionate] ?
**Result** 20
